- System: HT29 colon
- ASSAY_METHOD_TEXT: NCI tumour cell line growth inhibition, 48 h; in the data active = GI50 below about 0.43 µM; inactive = the rest
Choose one outcome from this list and give only that: active, inactive

Observe how each entry below is paired with its result.
Hi, sorry to bother you, what did the test record for COc1cc2nc(-c3ccc(C(F)(F)F)cc3)cc(OCCCN3CCCCC3)c2cc1OC ?
active

And then COc1ccc(C(=O)N2c3ccccc3Sc3ccccc32)c(C(F)(F)F)c1 , what is it?
active

Let us now turn to COc1ccc(Cl)cc1Nc1nc(C(F)(F)F)ccc1C(=O)N/N=C/c1cc(OC)c(OC)c(OC)c1
inactive

Proceed to CCCCCCN(CCCCCC)CC(O)c1ccc2c3c(cccc13)CC2 (centres undefined)
inactive

Ok, now N#C[C@@H]1C(n2ccc(N)nc2=O)O[C@H](CO)[C@H]1O (some centres undefined)
inactive

Continuing:
Status in this test for CCOc1c(Cl)cc(CNC(C)C(O)c2ccccc2)cc1OC (centres undefined) ?
inactive

And then Cn1cc(CNCC2CCN(c3ncc(C(=O)NO)cn3)CC2)c2ccccc21 , what is it?
active

Also Cc1ccc(NC(=O)Cn2c(Br)nc3c2c(=O)n(C)c(=O)n3C)cc1 ?
inactive

Another: CN[C@@H]1C[C@H]2O[C@@](C)([C@@H]1OC)n1c3ccccc3c3c4c(c5c6ccccc6n2c5c31)C(=O)N[C@@H]4O
active

----------
Let's look at some compounds and their measured TGI.
- Test system: 786-0 renal
- ASSAY_METHOD_TEXT: NCI tumour cell line growth inhibition, 48 h

Sample answers from the record:
I have this compound here, CSC1=NS(=O)(=O)c2cc(C(=O)NN(C)C(=O)c3cc4c(cc3Cl)SC(SC)=NS4(=O)=O)c(Cl)cc2S1 , and I need its recorded TGI.
> 10 µM

Similarly, Cc1ccc(C(=O)/C(C#N)=C/Nc2c(C)n(C)n(-c3ccccc3)c2=O)cc1 ?
> 100 µM

Same question, CCc1ccc2c(c1)CC1(C2)Cc2cc3c(cc2C1)C(=O)CC3 (centres undefined) this time
60.2 µM

Then this compound: COc1ccc(Cn2c(Cl)c(/C=C3/C(=O)Nc4ccccc43)c3cc(OC)c(C)cc32)cc1
31.7 µM

Could you do the same for CN(C)CCCOCCn1c2c(c3ccccc31)CCCC2 , please?
28.9 µM

Also check COc1ccc2nc3cc(Cl)ccc3c(NCCNCCCNC(=O)c3cc(-c4ccccc4)nc4ccccc34)c2c1
> 100 µM

// same read-out, input: COc1ccc(C2C(C#N)=C(S)N(C3OC(CO)C(O)C(O)C3O)C(c3ccccc3)=C2C(C)=O)cc1 (centres undefined)
> 100 µM

// repeat for COc1cc(/C=C2\CCC(C)C3=C2NC(=S)NC3c2cc(OC)c(OC)c(OC)c2)cc(OC)c1OC (centres undefined) and report
> 100 µM

Others:
Requested field: TGI. Item: CN1C(=O)C(Cl)(C(Cl)(Cl)S(=O)(=O)O)C(=O)c2ccccc21 (centres undefined)
> 100 µM

----------
- Test system: SF-539 CNS
- ASSAY_METHOD_TEXT: NCI tumour cell line growth inhibition, 48 h
PROPERTY: TGI

Item under review: CCOC(=O)C(/C=N\C(=S)Nc1ccc(OCC)cc1)=C(/O)c1ccccc1 . Reported TGI?
> 100 µM

// query: COC(=O)[C@@H]1C[C@@]2(C3C=CN(C(=O)C(F)(F)F)C=C3)c3ccccc3N(C(=O)C(F)(F)F)[C@H]2N1C(=O)OC
> 100 µM

Another molecule to look at: CCOC(=O)COS(=O)(=O)C(F)(F)F
> 100 µM

Would you mind doing CC(=O)O[C@H]1C(=O)[C@@]2(C)[C@H]([C@H](OC(=O)c3ccccc3)[C@]3(O)C[C@H](OC(=O)[C@H](O)[C@@H](NC(=O)CC(C)(C)C)c4ccccc4)C(C)=C1C3(C)C)C1(OC(C)=O)CO[C@@H]1C[C@@H]2O (stereo not given in full) as well?
0.00453 µM

Here is the next item to consider.
Fill blank: measured TGI of the molecule COc1cc(S(C)(=O)=O)ccc1Nc1nc2ccc(-c3ccc(NC(=O)[C@H](C)c4ccc(F)cc4)cc3)cn2n1 is ____.
> 100 µM
